# Tested on: UO-31 renal
# ASSAY REMARKS: NCI tumour cell line growth inhibition, 48 h
Kindly state TGI for each of the entries shown.

Examples with answers:
>>> result("CCC1(O)CC(OC2CC(N(C)C)C(OC3CC(O)C(OC4CCC(=O)C(C)O4)C(C)O3)C(C)O2)c2c(cc3c(c2O)C(=O)c2c(O)ccc(O)c2C3=O)C1C(=O)OC (stereo not drawn)")
"< 0.01 µM"
>>> result("C=CCOC(=O)C[C@H](NC(=O)[C@H](Cc1ccc(O)cc1)NCC(F)(F)F)C(=O)OCC=C")
"> 100 µM"
>>> result("CCCCCCCCCCn1cccc1/C=C/c1ccc(/C=C/c2cccn2CCCCCCCCCC)cc1")
"> 100 µM"
>>> result("C[CH2][Pb]([CH2]C)([CH2]C)[O]C(=O)COc1ccccc1")
"3.7 µM"
>>> result("COc1cc2c[n+](C)c3c4cc(OC)c(OC)cc4c(OCc4ccccc4)cc3c2cc1OC")
"> 100 µM"
>>> result("CCCN(CCC)c1ccc(CO)c(Cl)c1")
"> 100 µM"
>>> result("Cc1nc(N)nn1C1OCC(O)C(O)C1O (stereo not drawn)")
"> 100 µM"

Note: attention shifts to another entry.
The molecule listed as O=C(CCCCN1CCOCC1)Nc1ccc(Cn2nnc3c2C(=O)c2nnn(Cc4ccc(NC(=O)CCCCN5CCOCC5)cc4)c2C3=O)cc1 shows TGI equal to 17.5 µM

* * *

# Test system: 786-0 renal
# ASSAY REMARKS: NCI tumour cell line growth inhibition, 48 h
READOUT KIND: TGI

Worked examples follow.
>>> result("CC1=C(c2cc(C(=O)Nc3cc(C)ccc3C)nc(N)n2)Sc2ccccc2N1")
"> 100 µM"
>>> result("COC(=O)C1=C(C)C(=O)[C@H]2C(C(=O)OC)CCCC[C@@H]12 (some centres not stated)")
"> 100 µM"
>>> result("CC1=C(C(=O)N[C@@H](CC(C)C)C(=O)O)N2C(=O)[C@@H](NC(=O)[C@@H](N)Cc3ccccc3)[C@H]2SC1")
"> 100 µM"
>>> result("CCc1cccc(CC)c1NC(=O)C(C#N)C1=C(Cl)C(=O)c2ccccc2C1=O (configuration not stated)")
"31 µM"

// each listed molecule needs a value for TGI
1. O=c1[nH]c2[nH]c(-c3ccc(Br)cc3)cc2c2ccccc12
2. CC(=O)OCC1(C)C(OC(C)=O)CCC2(C)C(CC(OC(C)=O)C3=CCOC3=O)C(O)(CO)CCC12 (configuration not stated)
3. COc1ccc(OC)c2c1C(=O)C(=O)C(Cl)=C2O
4. CC(=N\O)/C(C)=N/O.CC(=N\O)/C(C)=N/O.CC(=N\O)/C(C)=N/O.CC(=N\O)/C(C)=N/O.[CH3-].[CH3-].[Co].[Co]
5. O=CN/N=C/c1ccc(Cl)c([N+](=O)[O-])c1
6. COc1cccc2c(Nc3ccc(S(=O)(=O)N=C(N)N)cc3)c3ccc([N+](=O)[O-])cc3nc12

Result:
1. > 100 µM
2. > 100 µM
3. > 100 µM
4. > 100 µM
5. > 100 µM
6. 46.7 µM

Could you tell me TGI for each of these molecules? They are listed below.
1. CCc1cccc(C)c1NC(=O)CC(=O)NNC(N)=S
2. CCOC(=O)c1nnn(-c2no[n+]([O-])c2-c2ccc(OC)cc2)c1COc1cccc2cccnc12
3. C[Si](C)(c1ccccc1)C1CC(=O)CC(=O)C1
4. ClCCn1cnc2c(SCc3ccccc3Cl)ncnc21

Result:
["> 100 µM", "5.24 µM", "49.9 µM", "20.4 µM"]

# batch: return TGI for each of the 2 molecules below
1. COc1ccc(N2CCN(C(=O)c3ccc(C(F)(F)F)nc3Nc3cc(Cl)ccc3C)CC2)cc1
2. CCCc1[nH]nc(C(N)=O)c1N=NN(C)C

Result:
1: 16.8 µM; 2: > 100 µM

Hey, quick one: what's TGI for each of these?
1. CN(C(=O)CCC(=O)O)c1ccccc1C(=O)O
2. CC[C@@]1(O)C(=O)OCc2c1cc1n(c2=O)Cc2c-1nc1ccccc1c2Cl

Result:
> 100 µM
0.126 µM

* * *

# Test system: MDA-MB-435
READOUT KIND: GI50

>>> result("O=C(N/N=C/c1c(Cl)cccc1Cl)c1cccnc1Nc1cccc(C(F)(F)F)c1")
"3.8 µM"
>>> result("C[n+]1c2ccccc2c(Nc2ccc(N3CCCCC3)cc2)c2[nH]c3ccccc3c21")
"0.442 µM"
>>> result("CN(C)CCCNCc1ccc(-c2ccc(F)c(Cl)c2)o1")
"5.58 µM"
>>> result("O=C(Nc1cccc(Cl)c1)Nc1nccs1")
"4 µM"
>>> result("ClCCn1cnc2c(SCc3ccccc3Cl)ncnc21")
"0.779 µM"

Consider the additional compound presented here.
Item O=c1ccc2nc(C(F)(F)F)nn(-c3ccccc3)c-2c1 ; assay system MDA-MB-435; GI50 reported as 4.56 µM

* * *

# Test system: UACC-257 melanoma
# ASSAY REMARKS: NCI tumour cell line growth inhibition, 48 h
READOUT KIND: TGI (µM)
One number for each entry, in µM.

Take a look at these entries with their results.
>>> recorded_number("O=S(=O)(Nc1ccc(Cl)cc1)c1ccc(-c2cnc(C3CC3)o2)cc1")
28.8
>>> recorded_number("c1ccc([Si](OCCN2CC2)(c2ccccc2)c2ccccc2)cc1")
33.2
>>> recorded_number("[N-]=[N+]=Nc1c(N2CCOCC2)c(Cl)nc2ccccc12")
78.3

Proceed to the following item.
Short answer for Cc1cc([N+](=O)[O-])ccc1Sc1c2ccccc2nc2ccccc12 : TGI was 71.3

* * *

# Test system: A549 NSCLC
# ASSAY REMARKS: NCI tumour cell line growth inhibition, 48 h; in the data active = GI50 below about 0.43 µM; inactive = the rest
# output must be one of TRUE for active, FALSE for inactive

Worked examples follow.
>>> category("[Cl-].[Nd+3].[O-]/N=C(\\c1ccccc1)c1ccccn1.[O-]/N=C(\\c1ccccc1)c1ccccn1.[O-]/N=C(\\c1ccccc1)c1ccccn1")
"FALSE"
>>> category("COc1ccc2nc3ccccc3c(NCc3ccc(Cl)cc3)c2c1")
"FALSE"
>>> category("CCOC(=O)/C=C1/SC(N2CCCCC2)C(=O)N1CC (centres undefined)")
"FALSE"
>>> category("COc1ccc(N2CCN(C(=O)c3ccc(C(F)(F)F)nc3Nc3cc(Cl)ccc3C)CC2)cc1")
"FALSE"
>>> category("C=CC(=O)N1C[C@H](COc2nc(Nc3cnn(C)c3)nc3[nH]cc(Cl)c23)[C@@H](OC)C1")
"FALSE"
>>> category("CN(C)CCCn1c2c(c3ccc(-c4ccn[nH]4)cc3c1=O)C(=O)c1ccccc1-2")
"TRUE"

Query: Kindly provide the recorded test outcome for the following compound: Cc1nc2c(o1)C(=O)c1ccccc1C2=Nc1ccccc1
Result: FALSE

Query: recorded result category for O=C1N[C@@H]2[C@@H](O)[C@@H](O)[C@H](O)C[C@H]2c2cc3c(c(O)c21)OCO3 in this test
Result: TRUE

Query: recorded result category for N#CC1=C(N)Oc2c(ccc3ccccc23)C1c1cccs1 (centres undefined) in this test
Result: TRUE

* * *

# Test system: SW-620 colon
# ASSAY REMARKS: NCI tumour cell line growth inhibition, 48 h
For each of the compounds below, state its TGI.

>>> result("COc1ccc(CCCNC(=O)Cc2cc(OC)c(OC)cc2CO)cc1OC")
"> 100 µM"
>>> result("C/C(=N\\NC(=O)c1ccncc1)c1cccc(F)c1")
"> 10 µM"

// each compound listed below needs its TGI
1. CCC(=O)OC1CCC2C3CCC(=O)OC3C(C)(CCC(=O)O)CC12C (stereo not drawn)
2. NS(=O)(=O)c1nnc(NS(=O)(=O)c2ccc(F)cc2)s1
3. Cc1nc2cc(Nc3nc(N4CCCCC4)nc(N4CCOCC4)n3)ccc2n1Cc1ccccc1
4. O=C1CC2(CCC(O)(c3ccccc3)C(C(=O)c3ccccc3)C2)C(=O)c2ccccc2N1 (stereo not drawn)
5. C=C1CCc2ccccc2C1=O
6. O=C(Nc1cccc(Cl)c1)Nc1nccs1
7. CCCN(CCC)c1ccc(CO)c(Cl)c1

Result:
> 100 µM
> 100 µM
> 100 µM
> 100 µM
> 100 µM
> 100 µM
> 100 µM

// each listed compound needs a value for TGI
1. CN/N=C(\C)c1c(O)cc(C)oc1=O
2. COc1ccc(C(O)c2cc(OC)c(OC)c(OC)c2)cc1 (stereo not drawn)
3. S=C1N=C2C(=N1)n1c3c(c4ccccc41)CCCC23 (stereo not drawn)
4. CCOP(=O)(/C=C/n1ccc(N)nc1=O)OCC
5. CC[C@@]1(O)C(=O)OCc2c1cc1n(c2=O)Cc2c-1nc1ccccc1c2Cl
6. CN1CCN(CC(=O)N2c3ccccc3Sc3cc4ccccc4cc32)CC1
7. CC(=O)NNc1nc(C)c(C(=O)/C=C/c2cccc([N+](=O)[O-])c2)s1

Result:
1. > 100 µM
2. > 100 µM
3. > 100 µM
4. > 100 µM
5. 39.7 µM
6. 50.9 µM
7. > 100 µM

List the reported TGI of each compound below.
1. O=C1C(Cl)N(c2ccc(Cl)cc2Cl)C1c1c[nH]c2ccccc12 (stereo not drawn)
2. O=CN/N=C/c1ccc(Cl)c([N+](=O)[O-])c1
3. CC(=O)OCCOCn1c2c(c(=O)[nH]c1=O)CCC2
4. CCOC(=O)c1nnn(-c2no[n+]([O-])c2-c2ccc(OC)cc2)c1COc1cccc2cccnc12
5. CC1=NN(C(=O)CC(=O)N(C(=O)c2ccccc2)c2ccc(Cl)cc2)C(=O)C1N=Nc1ccc([N+](=O)[O-])cc1 (stereo not drawn)

Result:
1: > 100 µM; 2: > 100 µM; 3: > 100 µM; 4: 1.8 µM; 5: > 10 µM

Lab note: each compound below needs its TGI filled in.
1. NCCc1ccc2oc3cc(=O)c4ccccc4c-3nc2c1
2. O=c1[nH]c2[nH]c(-c3ccc(Br)cc3)cc2c2ccccc12

Result:
["5.95 µM", "> 100 µM"]
